assay: PK studies in mice; assay type: in vivo, BALB/c female mice; settings: female, BALB/c, mouse, plasma, ip, 4 mg/kg
Test Readout: Tmax

Challenge: Quick check: Tmax of CC(C)=CC(=O)Nc1ccc(C2=C(c3ccc(O)cc3)C3OC2CC3S(=O)(=O)N(CC(F)(F)F)c2ccc(O)cc2)cc1 (stereo not shown) [Compound 29c] ?
Response given: 10 min

* * *

Examples of compounds with documented pKi follow.
Molecular target: human ERα LBD (Homo sapiens)
Sequence (P03372 311-547 limits assumed): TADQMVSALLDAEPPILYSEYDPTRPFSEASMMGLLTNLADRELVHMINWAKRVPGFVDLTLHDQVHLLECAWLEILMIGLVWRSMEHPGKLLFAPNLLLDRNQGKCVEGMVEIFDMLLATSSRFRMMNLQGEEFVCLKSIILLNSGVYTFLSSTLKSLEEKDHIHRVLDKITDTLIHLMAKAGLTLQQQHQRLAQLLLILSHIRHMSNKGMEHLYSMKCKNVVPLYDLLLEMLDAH
Assay: Competitive fluorescence polarization binding assay, ERα
In simple prose, pKi is minus the logarithm base ten of a concentration in moles per litre.

Compound | Test Readout | Value
O=C(CCl)Nc1ccc(OS(=O)(=O)C2CC3OC2C(c2ccc(O)cc2)=C3c2ccc(O)cc2)cc1 (stereo not shown) [Compound 26e] | pKi | 8.57
Nc1ccc(C2=C(c3ccc(O)cc3)C3OC2CC3S(=O)(=O)N(CC(F)(F)F)c2ccc(O)cc2)cc1 (stereo not shown) [Compound 29l] | pKi | 8.94
C#CC(=O)Nc1ccc(OS(=O)(=O)C2CC3OC2C(c2ccc(O)cc2)=C3c2ccc(O)cc2)cc1 (stereo not shown) [Compound 26d] | pKi | 8.49
C/C=C/C(=O)Nc1ccc(OS(=O)(=O)C2CC3OC2C(c2ccc(O)cc2)=C3c2ccc(O)cc2)cc1 (stereo not shown) [Compound 26b] | pKi | 9.24
O=C(CCl)Nc1ccc(C2=C(c3ccc(O)cc3)C3CC(S(=O)(=O)Oc4ccccc4)C2O3)cc1 (stereo not shown) [Compound 28d] | pKi | 9.10

Challenge: Missing value: pKi, human ERα LBD (Homo sapiens), entry CC(C)CC(=O)Nc1ccc(C2=C(c3ccc(O)cc3)[C@H]3O[C@@H]2CC3S(=O)(=O)N(CC(F)(F)F)c2ccc(O)cc2)cc1 (mixture of isomers) [Compound 29k] . Fill in?
Response given: 8.94

Challenge: Further, for CC(C)=CC(=O)Nc1ccc(C2=C(c3ccc(O)cc3)C3OC2CC3S(=O)(=O)N(CC(F)(F)F)c2ccc(F)cc2)cc1 (stereo not shown) [Compound 29g] ?
Response given: 9.43

* * *

biological target: human ERα LBD (Homo sapiens); test: Competitive fluorescence polarization binding assay, ERα; conditions: IC50 estradiol/IC50 compound × 100, estradiol = 100%
The label depends only on RBA ERα: Criterion met if it is at least 8%, Criterion not met if it is smaller.

Please review the entries below; each comes with its answer.
Molecule | Discrete Label
CC(C)=CC(=O)Nc1ccc(C2=C(c3ccc(O)cc3)C3OC2CC3S(=O)(=O)Oc2ccccc2)cc1 (stereo not drawn) [Compound 28c] | Criterion met
C=CC(=O)Nc1ccc(C2=C(c3ccc(O)cc3)C3OC2CC3S(=O)(=O)N(CC(F)(F)F)c2ccc(O)cc2)cc1 (stereo not drawn) [Compound 29a] | Criterion met
Nc1ccc(C2=C(c3ccc(O)cc3)C3OC2CC3S(=O)(=O)N(CC(F)(F)F)c2ccc(O)cc2)cc1 (stereo not drawn) [Compound 29l] | Criterion not met
CCN(c1ccc(OC)cc1)S(=O)(=O)C1CC2OC1C(c1ccc(O)cc1)=C2c1ccc(NC(=O)C=C(C)C)cc1 (stereo not drawn) [Compound 29j] | Criterion not met
C/C=C/C(=O)Nc1ccc(C2=C(c3ccc(O)cc3)C3OC2CC3S(=O)(=O)N(CC(F)(F)F)c2ccc(O)cc2)cc1 (stereo not drawn) [Compound 29b] | Criterion met

Shifting focus to the molecule that follows.
Challenge: Quick check: does O=C(CCl)Nc1ccc(OS(=O)(=O)C2CC3OC2C(c2ccc(O)cc2)=C3c2ccc(O)cc2)cc1 (stereo not drawn) [Compound 26e] have RBA ERα greater than or equal to 8%?
Response given: Criterion not met

* * *

Examples of compounds with documented pKi follow.
target: UniProtKB Q92731; assay: Competitive fluorescence polarization binding assay, ERβ
Sequence (Q92731 264-498 limits assumed): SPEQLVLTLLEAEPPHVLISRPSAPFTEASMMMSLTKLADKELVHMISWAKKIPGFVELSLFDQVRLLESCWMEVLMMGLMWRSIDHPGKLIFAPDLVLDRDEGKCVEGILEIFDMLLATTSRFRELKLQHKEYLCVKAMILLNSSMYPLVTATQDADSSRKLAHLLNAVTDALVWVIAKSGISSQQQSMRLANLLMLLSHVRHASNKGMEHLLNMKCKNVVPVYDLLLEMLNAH
In simple prose, pKi is minus the logarithm base ten of a concentration in moles per litre.

# annotated cases, reported pKi shown
Compound | Test Readout | Value
CC(C)=CC(=O)Nc1ccc(C2=C(c3ccc(O)cc3)C3OC2CC3S(=O)(=O)N(CC(F)(F)F)c2ccc(O)cc2)cc1 (stereo not shown) [Compound 29c] | pKi | 7.96
CC(C)=CC(=O)Nc1ccc(OS(=O)(=O)C2CC3OC2C(c2ccc(O)cc2)=C3c2ccc(O)cc2)cc1 (stereo not shown) [Compound 26c] | pKi | 8.29
C/C=C/C(=O)Nc1ccc(C2=C(c3ccc(O)cc3)C3OC2CC3S(=O)(=O)N(CC(F)(F)F)c2ccc(O)cc2)cc1 (stereo not shown) [Compound 29b] | pKi | 7.98

Challenge: Quick check: pKi of O=C(CBr)Nc1ccc(C2=C(c3ccc(O)cc3)C3OC2CC3S(=O)(=O)Oc2ccccc2)cc1 (stereo not shown) [Compound 28e] ?
Response given: 7.73

Challenge: Further, for O=C(CCl)Nc1ccc(OS(=O)(=O)C2CC3OC2C(c2ccc(O)cc2)=C3c2ccc(O)cc2)cc1 (stereo not shown) [Compound 26e] ?
Response given: 7.92

Challenge: Further, for C/C=C/C(=O)Nc1ccc(C2=C(c3ccc(O)cc3)C3OC2CC3S(=O)(=O)Oc2ccccc2)cc1 (stereo not shown) [Compound 28b] ?
Response given: 9.19

Challenge: Further, for CC(C)=CC(=O)Nc1ccc(C2=C(c3ccc(O)cc3)C3CC(S(=O)(=O)N(CC(F)(F)F)c4ccc(C)cc4)C2O3)cc1 (stereo not shown) [Compound 29d] ?
Response given: 8.31

* * *

tested on: MCF-7 cells; assay: Cell viability assay; type: cell-based, human; conditions: Homo sapiens, MCF7, 72 h, read-out: MCF-7 IC50
Examples of compounds with documented IC50 follow.
Just the number please, in nM, no unit attached.

Compound | Test System | IC50, nM
CC(C)=CC(=O)Nc1ccc(C2=C(c3ccc(O)cc3)C3CC(S(=O)(=O)Oc4ccc(O)cc4)C2O3)cc1 (stereo not shown) [Compound 28f] | MCF-7 cells | 930
C=CC(=O)Nc1ccc(OS(=O)(=O)C2CC3OC2C(c2ccc(O)cc2)=C3c2ccc(O)cc2)cc1 (stereo not shown) [Compound 26a] | MCF-7 cells | 7720
C/C=C/C(=O)Nc1ccc(C2=C(c3ccc(O)cc3)C3OC2CC3S(=O)(=O)Oc2ccccc2)cc1 (stereo not shown) [Compound 28b] | MCF-7 cells | 440

The record that follows has no IC50 shown yet.
Challenge: Quick check: IC50 of O=C(CBr)Nc1ccc(OS(=O)(=O)C2CC3OC2C(c2ccc(O)cc2)=C3c2ccc(O)cc2)cc1 (stereo not shown) [Compound 26f] ?
Response given: 500

* * *

Examples of compounds with documented α/β ratio follow.
Target: UniProtKB P03372
Sequence (P03372 311-547 limits assumed): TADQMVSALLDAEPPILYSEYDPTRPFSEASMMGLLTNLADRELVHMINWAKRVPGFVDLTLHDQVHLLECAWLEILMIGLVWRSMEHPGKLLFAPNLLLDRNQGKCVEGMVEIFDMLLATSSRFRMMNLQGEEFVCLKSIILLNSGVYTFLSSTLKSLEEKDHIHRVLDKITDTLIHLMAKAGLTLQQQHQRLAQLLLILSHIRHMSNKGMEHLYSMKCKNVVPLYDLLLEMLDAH
Assay: Competitive fluorescence polarization binding assay, ERα
Conditions: ratio of RBA ERα to RBA ERβ
Answer using only a numeral; do not append any unit.

# annotated cases, reported α/β ratio shown
Compound | α/β ratio
C=CC(=O)Nc1ccc(C2=C(c3ccc(O)cc3)C3OC2CC3S(=O)(=O)N(CC(F)(F)F)c2ccc(O)cc2)cc1 (stereo not drawn) [Compound 29a] | 2.97
C/C=C/C(=O)Nc1ccc(C2=C(c3ccc(O)cc3)C3OC2CC3S(=O)(=O)Oc2ccccc2)cc1 (stereo not drawn) [Compound 28b] | 1.35
CC(C)=CC(=O)Nc1ccc(C2=C(c3ccc(O)cc3)C3CC(S(=O)(=O)N(CC(F)(F)F)c4ccc(C)cc4)C2O3)cc1 (stereo not drawn) [Compound 29d] | 4.74
C/C=C/C(=O)Nc1ccc(C2=C(c3ccc(O)cc3)C3OC2CC3S(=O)(=O)N(CC(F)(F)F)c2ccc(O)cc2)cc1 (stereo not drawn) [Compound 29b] | 31.46
CC(C)=CC(=O)Nc1ccc(C2=C(c3ccc(O)cc3)C3OC2CC3S(=O)(=O)N(CC(F)(F)F)c2ccc(O)cc2)cc1 (stereo not drawn) [Compound 29c] | 49.90
Nc1ccc(C2=C(c3ccc(O)cc3)C3OC2CC3S(=O)(=O)N(CC(F)(F)F)c2ccc(O)cc2)cc1 (stereo not drawn) [Compound 29l] | 1.03
CC(C)=CC(=O)Nc1ccc(C2=C(c3ccc(O)cc3)C3OC2CC3S(=O)(=O)Oc2ccccc2)cc1 (stereo not drawn) [Compound 28c] | 24.59
CCN(c1ccc(O)cc1)S(=O)(=O)C1CC2OC1C(c1ccc(O)cc1)=C2c1ccc(NC(=O)C=C(C)C)cc1 (stereo not drawn) [Compound 29i] | 5.83

Challenge: Quick check: α/β ratio of CCN(c1ccc(OC)cc1)S(=O)(=O)C1CC2OC1C(c1ccc(O)cc1)=C2c1ccc(NC(=O)C=C(C)C)cc1 (stereo not drawn) [Compound 29j] ?
Response given: 8.55
